Vasopressin V2 receptor (Homo sapiens, UniProt P30518) measurements of AC50, listed per entry. Note: assay procedure not described here.
Sequence (P30518 whole entry): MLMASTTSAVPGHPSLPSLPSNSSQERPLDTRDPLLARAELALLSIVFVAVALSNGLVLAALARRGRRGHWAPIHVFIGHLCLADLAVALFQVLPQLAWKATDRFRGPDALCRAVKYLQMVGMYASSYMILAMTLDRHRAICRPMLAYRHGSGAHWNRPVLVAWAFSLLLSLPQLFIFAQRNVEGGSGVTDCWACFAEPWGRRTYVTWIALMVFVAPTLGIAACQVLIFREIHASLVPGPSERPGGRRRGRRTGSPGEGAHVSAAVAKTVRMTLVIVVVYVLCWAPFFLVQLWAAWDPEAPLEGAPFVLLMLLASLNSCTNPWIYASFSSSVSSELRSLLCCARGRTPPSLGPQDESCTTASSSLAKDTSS
experimental.readout: AC50

INSERT INTO results (compound, experimental_readout, value_observed) VALUES
  ('CC(C)C(=O)OCC(=O)[C@@]12O[C@H](C3CCCCC3)O[C@@H]1C[C@H]1[C@@H]3CCC4=CC(=O)C=C[C@]4(C)[C@H]3[C@@H](O)C[C@@]12C [CICLESONIDE]', 'AC50', '> 10 µM'),
  ('C#C[C@]1(O)CC[C@H]2[C@@H]3CCC4=CCCC[C@@H]4[C@H]3CC[C@@]21C', 'AC50', '> 30 µM'),
  ('CN1C(=O)CC(c2ccccc2)C1=O (stereo not drawn) [PHENSUXIMIDE]', 'AC50', '> 10 µM'),
  ('CC(C)[N+](C)(CCC(C(N)=O)(c1ccccc1)c1ccccc1)C(C)C [ISOPROPAMIDE]', 'AC50', '> 10 µM'),
  ('CN1C(=O)CC(C)(c2ccccc2)C1=O (stereo not drawn) [METHSUXIMIDE]', 'AC50', '> 10 µM'),
  ('CCCC(CCC)C(=O)O[C@H]1C[C@H]2CC[C@@H](C1)[N+]2(C)C', 'AC50', '> 30 µM'),
  ('COc1ccccc1OCC(O)COC(N)=O (stereo not drawn)', 'AC50', '> 10 µM'),
  ('Nc1nc(N)c2nc(-c3ccccc3)c(N)nc2n1', 'AC50', '> 30 µM'),
  ('CCc1ccc(CCOc2ccc(CC3SC(=O)NC3=O)cc2)nc1 (stereo not drawn)', 'AC50', '> 30 µM'),
  ('COc1ccc2c(c1)C(=O)N(CCc1ccc(S(=O)(=O)NC(=O)NC3CCCCC3)cc1)C(=O)C2(C)C', 'AC50', '> 30 µM'),
  ('C[C@H]1O[C@H](O[C@H]2[C@H](O)[C@@H](O)[C@@H](O[C@H]3[C@H](O)[C@@H](O)C(O)O[C@@H]3CO)O[C@@H]2CO)[C@H](O)[C@@H](O)[C@@H]1N[C@H]1C=C(CO)[C@@H](O)[C@H](O)[C@H]1O (stereo partly drawn)', 'AC50', '> 30 µM'),
  ('CN1C(=O)COc2c(C(=O)NC3CN4CCC3CC4)cc(Cl)cc21 (stereo not drawn)', 'AC50', '> 30 µM'),
  ('COC(=O)N[C@H](C(=O)N[C@@H](Cc1ccccc1)[C@@H](O)CN(Cc1ccc(-c2ccccn2)cc1)NC(=O)[C@@H](NC(=O)OC)C(C)(C)C)C(C)(C)C', 'AC50', '> 30 µM'),
  ('COc1cc2c(cc1OC)C(=O)C(CC1CCN(Cc3ccccc3)CC1)C2 (stereo not drawn)', 'AC50', '> 30 µM'),
  ('Cc1c(O)c(=O)ccn1C', 'AC50', '> 30 µM'),
  ('O=C1NCCN1CCN1CCC(c2cn(-c3ccc(F)cc3)c3ccc(Cl)cc23)CC1', 'AC50', '27 µM'),
  ('OCCN1CCN(CCCN2c3ccccc3C=Cc3ccccc32)CC1', 'AC50', '> 30 µM'),
  ('N[C@@H](C(=O)N[C@@H]1C(=O)N2C(C(=O)O)=C(Cl)CS[C@H]12)c1ccccc1 [CEFACLOR ANHYDROUS]', 'AC50', '> 30 µM');

---

We begin with a simple list: items and their reported AC50.
molecular target: Glutamate receptor ionotropic, NMDA 1 (Rattus norvegicus, UniProt P35439); note: assay procedure not described here
experimental.readout: AC50

INSERT INTO results (compound, value_observed) VALUES
  ('CC(=O)OCC(=O)[C@@]1(O)CC[C@H]2[C@@H]3CCC4=CC(=O)CC[C@]4(C)[C@H]3C(=O)C[C@@]21C [CORTISONE ACETATE]', '> 30 µM'),
  ('NC[C@H]1O[C@H](O[C@H]2[C@H](O)[C@@H](O[C@H]3O[C@H](CO)[C@@H](O)[C@H](N)[C@H]3O)[C@H](N)C[C@@H]2N)[C@H](O)[C@@H](O)[C@@H]1O', '> 10 µM'),
  ('CN(C/C=C/c1ccccc1)Cc1cccc2ccccc12', '> 10 µM'),
  ('COC(=O)C1=C(C)NC(C)=C(C(=O)OCC(C)C)C1c1ccccc1[N+](=O)[O-] (centres undefined)', '> 10 µM');

---

molecular target: UniProtKB Q12809; type: functional; details: read-out: AC50; note: assay procedure not described here
Sequence (Q12809 whole entry): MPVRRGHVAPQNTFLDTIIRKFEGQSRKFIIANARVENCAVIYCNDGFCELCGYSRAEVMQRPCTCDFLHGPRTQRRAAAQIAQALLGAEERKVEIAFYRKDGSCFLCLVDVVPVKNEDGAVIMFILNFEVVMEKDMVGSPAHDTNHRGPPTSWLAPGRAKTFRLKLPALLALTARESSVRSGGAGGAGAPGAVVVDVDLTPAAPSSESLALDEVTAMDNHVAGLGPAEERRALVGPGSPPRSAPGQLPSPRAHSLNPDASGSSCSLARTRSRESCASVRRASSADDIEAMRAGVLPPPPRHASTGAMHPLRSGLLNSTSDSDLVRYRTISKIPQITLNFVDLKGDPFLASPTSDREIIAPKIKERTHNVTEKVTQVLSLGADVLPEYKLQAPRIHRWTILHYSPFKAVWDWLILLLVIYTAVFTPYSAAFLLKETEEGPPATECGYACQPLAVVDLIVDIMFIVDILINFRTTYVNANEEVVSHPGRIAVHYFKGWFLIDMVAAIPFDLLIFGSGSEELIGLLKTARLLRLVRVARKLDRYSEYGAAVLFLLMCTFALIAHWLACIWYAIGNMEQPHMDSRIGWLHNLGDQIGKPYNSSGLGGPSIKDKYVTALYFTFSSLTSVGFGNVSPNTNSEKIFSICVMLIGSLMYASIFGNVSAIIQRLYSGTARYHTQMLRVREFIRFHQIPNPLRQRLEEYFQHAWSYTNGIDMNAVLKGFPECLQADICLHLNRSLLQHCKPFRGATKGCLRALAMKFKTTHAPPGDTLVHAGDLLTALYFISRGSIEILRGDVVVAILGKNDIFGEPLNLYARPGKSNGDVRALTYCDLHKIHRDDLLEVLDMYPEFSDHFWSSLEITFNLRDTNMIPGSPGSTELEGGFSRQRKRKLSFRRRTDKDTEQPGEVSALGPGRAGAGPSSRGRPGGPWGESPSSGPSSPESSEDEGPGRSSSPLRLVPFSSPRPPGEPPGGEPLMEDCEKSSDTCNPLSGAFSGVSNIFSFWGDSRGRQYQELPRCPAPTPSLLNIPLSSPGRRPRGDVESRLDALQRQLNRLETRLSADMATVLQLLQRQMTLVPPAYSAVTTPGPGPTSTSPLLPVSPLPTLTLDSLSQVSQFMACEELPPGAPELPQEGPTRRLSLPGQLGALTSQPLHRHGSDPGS
We begin with a simple list: items and their reported AC50.
experimental.readout: AC50

INSERT INTO measurements (compound, test_system, value_observed) VALUES
  ('Cc1cc(O)cc(C)c1Cl [CHLOROXYLENOL]', 'UniProtKB Q12809', '> 30 µM'),
  ('C[C@@H]1O[C@@H]1P(=O)(O)O [FOSFOMYCIN]', 'UniProtKB Q12809', '> 30 µM'),
  ('CCC1C(C)=NN=C(c2ccc(OC)c(OC)c2)c2cc(OC)c(OC)cc21 (centres undefined) [TOFISOPAM]', 'UniProtKB Q12809', '> 30 µM'),
  ('CCCCCCCCCCCC[N+](C)(C)CCOc1ccccc1 [DOMIPHEN]', 'UniProtKB Q12809', '1.7 µM');

---

target: 5-hydroxytryptamine receptor 2A (Homo sapiens, UniProt P28223); format: functional, cell-based; note: assay procedure not described here
Sequence (P28223 whole entry): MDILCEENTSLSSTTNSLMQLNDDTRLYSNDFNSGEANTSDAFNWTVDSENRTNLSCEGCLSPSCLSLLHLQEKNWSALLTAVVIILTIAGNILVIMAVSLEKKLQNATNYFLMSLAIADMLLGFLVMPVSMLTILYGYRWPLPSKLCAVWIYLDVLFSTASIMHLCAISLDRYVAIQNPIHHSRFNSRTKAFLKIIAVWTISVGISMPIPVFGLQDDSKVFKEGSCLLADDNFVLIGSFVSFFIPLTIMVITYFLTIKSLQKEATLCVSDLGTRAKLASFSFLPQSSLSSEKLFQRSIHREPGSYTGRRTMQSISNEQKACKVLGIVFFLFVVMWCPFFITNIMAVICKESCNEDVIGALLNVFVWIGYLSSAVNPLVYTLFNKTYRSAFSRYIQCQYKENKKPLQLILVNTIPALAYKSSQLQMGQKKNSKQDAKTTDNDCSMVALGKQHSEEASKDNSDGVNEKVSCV
experimental.readout: AC50

INSERT INTO results (compound, value_observed) VALUES
  ('O=C1CN=C(c2ccccc2)c2cc(Cl)ccc2N1CC(F)(F)F [HALAZEPAM]', '> 30 µM'),
  ('Nc1ccc(/N=N/c2ccccc2)c(N)n1 [PHENAZOPYRIDINE]', '> 30 µM'),
  ('CCCCCCC(C)(C)c1cc(O)c2c(c1)OC(C)(C)C1CCC(=O)CC21 (stereo not drawn) [NABILONE]', '> 30 µM');

---

Thromboxane A2 receptor (Homo sapiens, UniProt P21731) measurements of AC50, listed per entry. Note: assay procedure not described here.
Sequence (P21731 whole entry): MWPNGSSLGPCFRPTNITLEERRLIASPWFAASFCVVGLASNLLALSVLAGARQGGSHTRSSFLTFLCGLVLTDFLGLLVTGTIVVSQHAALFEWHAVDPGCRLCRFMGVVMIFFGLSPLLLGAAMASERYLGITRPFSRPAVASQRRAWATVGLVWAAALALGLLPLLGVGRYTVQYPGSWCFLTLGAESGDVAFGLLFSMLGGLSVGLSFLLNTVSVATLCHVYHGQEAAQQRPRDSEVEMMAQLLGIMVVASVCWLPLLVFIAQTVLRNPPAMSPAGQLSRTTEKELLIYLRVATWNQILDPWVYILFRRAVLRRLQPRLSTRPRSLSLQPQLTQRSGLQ
experimental.readout: AC50

INSERT INTO measurements (compound, value_observed) VALUES
  ('O=C1CCC(N2C(=O)c3ccccc3C2=O)C(=O)N1 (stereo not drawn) [THALIDOMIDE]', '> 30 µM'),
  ('CCOc1cc(N)c([N+](=O)[O-])cc1C(=O)NC1CCN(CC2CC=CCC2)CC1 (stereo not drawn) [CINITAPRIDE]', '> 30 µM'),
  ('O=C(O)CCCc1ccccc1 [PHENYLBUTANOIC ACID]', '> 10 µM'),
  ('CC(=O)NS(=O)(=O)c1ccc(N)cc1 [SULFACETAMIDE]', '> 10 µM'),
  ('COc1cc2c(cc1OC)C(=O)C(CC1CCN(Cc3ccccc3)CC1)C2 (stereo not drawn) [DONEPEZIL]', '> 30 µM'),
  ('CN(C)C(=O)OC1N=C(c2ccccc2)c2cc(Cl)ccc2N(C)C1=O (stereo not drawn) [CAMAZEPAM]', '> 30 µM'),
  ('CCCS(=O)(=O)Nc1ccc(F)c(C(=O)c2c[nH]c3ncc(-c4ccc(Cl)cc4)cc23)c1F [VEMURAFENIB]', '> 30 µM'),
  ('COc1ccccc1OCC(O)COC(N)=O (stereo not drawn) [METHOCARBAMOL]', '> 10 µM');

---

Gamma-aminobutyric acid receptor subunit alpha-1 (Rattus norvegicus, UniProt P62813) measurements of AC50, listed per entry. Note: assay procedure not described here.
Sequence (P62813 whole entry): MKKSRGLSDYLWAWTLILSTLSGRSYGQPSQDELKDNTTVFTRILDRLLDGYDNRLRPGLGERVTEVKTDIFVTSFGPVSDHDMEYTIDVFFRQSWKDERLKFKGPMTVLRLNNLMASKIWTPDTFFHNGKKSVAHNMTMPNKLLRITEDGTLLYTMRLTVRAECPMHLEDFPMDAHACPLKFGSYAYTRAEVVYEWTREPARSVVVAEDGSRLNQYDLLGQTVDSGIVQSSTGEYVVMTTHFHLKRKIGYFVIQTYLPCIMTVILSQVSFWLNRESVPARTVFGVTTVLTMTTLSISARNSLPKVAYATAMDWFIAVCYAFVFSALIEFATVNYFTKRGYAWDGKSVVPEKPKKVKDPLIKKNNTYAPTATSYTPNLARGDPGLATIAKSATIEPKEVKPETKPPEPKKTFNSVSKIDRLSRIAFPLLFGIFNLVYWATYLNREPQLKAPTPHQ
experimental.readout: AC50

INSERT INTO measurements (compound, experimental_readout, value_observed) VALUES
  ('COC(=O)N[C@H](C(=O)N[C@@H](Cc1ccccc1)[C@@H](O)CN(Cc1ccc(-c2ccccn2)cc1)NC(=O)[C@@H](NC(=O)OC)C(C)(C)C)C(C)(C)C [ATAZANAVIR]', 'AC50', '> 10 µM'),
  ('CN(CCOc1ccc(NS(C)(=O)=O)cc1)CCc1ccc(NS(C)(=O)=O)cc1 [DOFETILIDE]', 'AC50', '> 10 µM'),
  ('C[C@]12CCC(=O)C=C1CC[C@@H]1[C@@H]2CC[C@@]2(C)[C@H]1CC[C@]2(C)O [METHYLTESTOSTERONE]', 'AC50', '> 30 µM'),
  ('COc1ccc2cccc(CCNC(C)=O)c2c1 [AGOMELATINE]', 'AC50', '> 10 µM'),
  ('CC1=CC(=O)c2ccccc2C1=O [MENADIONE]', 'AC50', '> 10 µM'),
  ('CN1C(=O)N(C)C2C1N(C)C(=O)N2C (centres undefined) [MEBICAR]', 'AC50', '> 30 µM'),
  ('NS(=O)(=O)c1cc(Cl)c(Cl)c(S(N)(=O)=O)c1 [DICHLORPHENAMIDE]', 'AC50', '> 10 µM'),
  ('CCC[C@@H]1C[C@@H](C(=O)N[C@@H]([C@H]2O[C@H](SC)[C@H](O)[C@@H](O)[C@H]2O)[C@H](C)Cl)N(C)C1 [CLINDAMYCIN]', 'AC50', '> 10 µM'),
  ('COC(=O)C1=C(C)NC(C)=C(C(=O)OC(C)C)C1c1cccc2nonc12 (centres undefined) [ISRADIPINE]', 'AC50', '> 10 µM'),
  ('CO/N=C(\C(=O)N[C@@H]1C(=O)N2C(C(=O)OCOC(=O)C(C)(C)C)=C(C)CS[C@H]12)c1csc(N)n1', 'AC50', '> 30 µM'),
  ('O=P(O)(O)C(O)(Cc1cccnc1)P(=O)(O)O [RISEDRONIC ACID]', 'AC50', '> 30 µM'),
  ('CC(C)[N+](C)(CCC(C(N)=O)(c1ccccc1)c1ccccc1)C(C)C [ISOPROPAMIDE]', 'AC50', '> 10 µM'),
  ('CC(=O)OCC(=O)[C@@]12OC3(CCCC3)O[C@@H]1C[C@H]1[C@@H]3CCC4=CC(=O)C=C[C@]4(C)[C@@]3(F)[C@@H](O)C[C@@]12C [AMCINONIDE]', 'AC50', '> 10 µM'),
  ('C#CCN[C@@H]1CCc2ccccc21 [RASAGILINE]', 'AC50', '> 30 µM'),
  ('N/N=c1/cc2c(n[nH]1)CCN(C(=O)c1ccccc1)C2 [ENDRALAZINE]', 'AC50', '> 30 µM'),
  ('CN1C(=O)COc2c(C(=O)NC3CN4CCC3CC4)cc(Cl)cc21 (centres undefined) [AZASETRON]', 'AC50', '> 30 µM'),
  ('COC(=O)[C@H]1[C@@H](OC(=O)c2ccccc2)C[C@@H]2CC[C@H]1N2C [COCAINE]', 'AC50', '> 30 µM'),
  ('O=C(O)c1cc(-c2ccc(F)cc2F)ccc1O [DIFLUNISAL]', 'AC50', '> 10 µM'),
  ('Cc1nc2ccc(CN(C)c3ccc(C(=O)N[C@@H](CCC(=O)O)C(=O)O)s3)cc2c(=O)[nH]1 [RALTITREXED]', 'AC50', '> 30 µM'),
  ('CN1CC[C@]23CCCC[C@H]2[C@H]1Cc1ccc(O)cc13 [LEVORPHANOL]', 'AC50', '> 10 µM'),
  ('C=C1CC[C@@]2(O)[C@H]3Cc4ccc(O)c5c4[C@@]2(CCN3CC2CC2)[C@H]1O5', 'AC50', '> 30 µM'),
  ('COc1ccccc1OCC(O)COC(N)=O (centres undefined) [METHOCARBAMOL]', 'AC50', '> 10 µM'),
  ('CC(=O)O[C@@]12CO[C@@H]1C[C@H](O)[C@@]1(C)C(=O)[C@H](O)C3=C(C)[C@@H](OC(=O)[C@H](O)[C@@H](NC(=O)OC(C)(C)C)c4ccccc4)C[C@@](O)([C@@H](OC(=O)c4ccccc4)[C@H]21)C3(C)C [DOCETAXEL ANHYDROUS]', 'AC50', '> 30 µM'),
  ('Cc1c(Cl)cccc1Nc1ccccc1C(=O)O [TOLFENAMIC ACID]', 'AC50', '> 30 µM'),
  ('CCCCC(C)(O)C/C=C/[C@H]1[C@H](O)CC(=O)[C@@H]1CCCCCCC(=O)OC (some centres undefined) [MISOPROSTOL]', 'AC50', '> 30 µM'),
  ('C1COC(NC(C2CC2)C2CC2)=N1 [RILMENIDINE]', 'AC50', '> 10 µM'),
  ('CN1CCc2cccc3c2[C@H]1Cc1ccc(O)c(O)c1-3 [APOMORPHINE]', 'AC50', '> 10 µM'),
  ('Cc1c(C(=O)Nc2ccc(N3C[C@@H](C)O[C@@H](C)C3)nc2)cccc1-c1ccc(OC(F)(F)F)cc1 [SONIDEGIB]', 'AC50', '> 10 µM'),
  ('CCCC(=O)N1CCCN(c2nc(N)c3cc(OC)c(OC)cc3n2)CC1 [BUNAZOSIN]', 'AC50', '> 30 µM');
